All values here come from paper PMC3939009.

- target-under-test: human thrombin (Homo sapiens)
- assay-comment: BIAcore (SPR) analysis of binding to immobilized thrombin
- particulars: 5 sensorgrams, 50 to 1,000 μM; read-out: K D, equilibrium dissociation constant
# label = Condition met if Kd < 50 µM else Condition not met

Inquiry: For this compound, is Kd lower than 50 µM? Oc1cc(O)c2c(c1)O[C@H](c1ccc(O)c(O)c1)[C@H](O)C2 [(−)-Epicatechin, (−)-epicatechin]
Reply text: Condition not met

Inquiry: Another compound to look at: COc1cc(C2Oc3cc([C@H]4Oc5cc(O)cc(O)c5C(=O)[C@@H]4O)ccc3OC2CO)ccc1O (stereo in doubt)
Reply text: Condition met

Inquiry: Input OC[C@H]1O[C@@H](Oc2cc3c(O[C@@H]4O[C@H](CO)[C@@H](O)[C@H](O)[C@H]4O)cc(O)cc3[o+]c2-c2ccc(O)c(O)c2)[C@H](O)[C@@H](O)[C@@H]1O
Reply text: Condition not met

Inquiry: What about O=c1c(O)c(-c2ccc(O)c(O)c2)oc2cc(O)cc(O)c12 ?
Reply text: Condition met

====

- target-under-test: human thrombin (Homo sapiens, UniProt P00734)
- assay-comment: BIAcore (SPR) analysis of binding to immobilized thrombin
- Design: Thrombin, also known as an active plasma coagulation factor II; purchased Sigma-Aldrich Chemical Co. (St. Louis, MO, USA) T7009
- particulars: 5 sensorgrams, 50 to 1,000 μM; read-out: k d, dissociation rate
measurement-kind: koff
Express the reported value numerically, then name its unit.

Inquiry: Recorded koff for O=c1c(O)c(-c2ccc(O)c(O)c2)oc2cc(O)cc(O)c12 [Quercetin, quercetin] , please?
Reply text: 1.67e-06 s⁻¹

Inquiry: What do we get for Oc1cc(O)c2c(c1)O[C@H](c1ccc(O)c(O)c1)[C@@H](O)C2 [(+)-Catechin, (+)-catechin] ?
Reply text: 0.000178 s⁻¹

Inquiry: Request: COc1cc(C2Oc3cc([C@H]4Oc5cc(O)cc(O)c5C(=O)[C@@H]4O)ccc3OC2CO)ccc1O (stereo in doubt) [Silybin, silybin]
Reply text: 0.000132 s⁻¹

Inquiry: Query Oc1cc(O)c2c(c1)O[C@H](c1ccc(O)c(O)c1)[C@H](O)C2 [(−)-Epicatechin, (−)-epicatechin] next
Reply text: 0.0227 s⁻¹

Inquiry: Please give the result for OC[C@H]1O[C@@H](Oc2cc3c(O[C@@H]4O[C@H](CO)[C@@H](O)[C@H](O)[C@H]4O)cc(O)cc3[o+]c2-c2ccc(O)c(O)c2)[C@H](O)[C@@H](O)[C@@H]1O [Cyanin, cyanin] too.
Reply text: 0.00824 s⁻¹

====

Answer each item with its documented k cat.
- target-under-test: UniProtKB P00734
- assay-comment: Analysis of thrombin inhibition parameters (Lineweaver–Burk curves)
- Assay type: biochemical
- Parameters: Thrombin, also known as an active plasma coagulation factor II; purchased Sigma-Aldrich Chemical Co. (St. Louis, MO, USA) T7009
- particulars: compound at IC50 concentration; k cat = V max/E 0; control 29.1
- Experimental: Absorbance was monitored every 12 s for 10 min in a 96-well microplate reader. The velocity of reaction was expressed as the increase in product (pNA) over time (∆ μmol/min) using a computer program Mikcroplate Manager® 8 and the extinction coefficient of p-nitroaniline. […] Then, the Lineweaver–Burk ([1934]) curves for thrombin in the presence and in the absence of polyphenol compounds were plotted. […]

Inquiry: Look up k cat for this molecule: COc1cc(C2Oc3cc([C@H]4Oc5cc(O)cc(O)c5C(=O)[C@@H]4O)ccc3OC2CO)ccc1O (stereo in doubt) [Silybin, silybin]
Reply text: 25.6 s⁻¹

Inquiry: Try the molecule O=c1c(O)c(-c2ccc(O)c(O)c2)oc2cc(O)cc(O)c12 [Quercetin, quercetin]
Reply text: 27.8 s⁻¹

Inquiry: Could you do the same for Oc1cc(O)c2cc(O)c(-c3ccc(O)c(O)c3)[o+]c2c1 [Cyanidin, cyanidin] , please?
Reply text: 28.7 s⁻¹

Inquiry: Moving on to the next molecule: OC[C@H]1O[C@@H](Oc2cc3c(O[C@@H]4O[C@H](CO)[C@@H](O)[C@H](O)[C@H]4O)cc(O)cc3[o+]c2-c2ccc(O)c(O)c2)[C@H](O)[C@@H](O)[C@@H]1O [Cyanin, cyanin]
Reply text: 19.7 s⁻¹

Inquiry: Okay, and Oc1cc(O)c2c(c1)O[C@H](c1ccc(O)c(O)c1)[C@H](O)C2 [(−)-Epicatechin, (−)-epicatechin] ?
Reply text: 27.8 s⁻¹

Inquiry: Also need Oc1cc(O)c2c(c1)O[C@H](c1ccc(O)c(O)c1)[C@@H](O)C2 [(+)-Catechin, (+)-catechin] , thanks.
Reply text: 29.5 s⁻¹
